Reference source for all entries: the supplement of paper PMC9732359

test: protein stability index of a GFP-peptide fusion (yeast GPS) (PSI 1-4); higher = more stable; sorted into four equal gates, so the index is relative within each strain; conditions: san1∆
A collection of sequences and their measured protein stability index
Number only, no unit.

Look over these answered cases.
GNVIQFIYGEDGMDAAH [RPO21]: 3.2
KQTKLRKEKEKKPGKIA [SMB1]: 2.51
IQTVVISLLALPHSPLW [YML031W/NDC1]: 1.36
NFTSPTAVVNNAAPANV [SWI1]: 2.69
LVQLFLWDSKELEQLVE [RPN3]: 2.08

Respond only with protein stability index recorded for LMLGSVNLPGGILRRKS [RRP4] 1.54

Respond only with protein stability index recorded for ELLSMNIAPRLRLEDIF [RET1] 2.35

Respond only with protein stability index recorded for APIPKQLLQRIPNIPPN [GAL11] 2.6

Respond only with protein stability index recorded for TRIFQALPRKLRRRTAS [POP1] 2.68

Respond only with protein stability index recorded for IDVDMDASPAPSNESCS [SRB5] 2.66

###

test: protein stability index of a GFP-peptide fusion (yeast GPS) (PSI 1-4); higher = more stable; sorted into four equal gates, so the index is relative within each strain; settings: pdr5∆
endpoint: protein stability index
Number only, no unit.

Respond only with protein stability index recorded for ENANAANNGAAFSPLTT [MED2] 2.92

Respond only with protein stability index recorded for IFLHSLPVKEFQIIDTL [RPS2] 2.54

Respond only with protein stability index recorded for IKHSKCRQEFLERVKAN [RPL21A] 3.1

Respond only with protein stability index recorded for VNIHHLLNEYRPHQSRE [MED7] 2.4

Respond only with protein stability index recorded for NSTGHSSNTNNNTNNNN [SWI1] 3.26

Respond only with protein stability index recorded for KRINKFLDSVHKQGSSY [POP7] 2.52

Respond only with protein stability index recorded for KLHVNWNLNATKPNVLN [SIN4] 2.86

Respond only with protein stability index recorded for APSVPEFIYLTKVLQFA [SNF2] 2.5

###

assay: protein stability index of a GFP-peptide fusion (yeast GPS) (PSI 1-4); higher = more stable; sorted into four equal gates, so the index is relative within each strain; conditions: pdr5∆
Output Criterion met for protein stability index not less than 3; output Criterion not met otherwise.

// known answers, use as guide
TMFTAEQSELLKAQITS [SNF2]: Criterion not met
IIKQENFNSVNDANITS [SSN2]: Criterion not met
FDISMADLSSSEEEEDE [SSN2]: Criterion met
ASYVNIPVIALTDLDSP [RPS0A]: Criterion not met
YQSRGIDAMKAVAEAYN [RPN6]: Criterion met
CSPWSLQISDIPAAGNN [SRB5]: Criterion not met

Is it the case that IDFFKTDDSFEDKVFAS [BRN1] has protein stability index reaching or exceeding 3? Criterion not met

Is it the case that DDRGPVLESIVARTFWA [BRR2] has protein stability index reaching or exceeding 3? Criterion not met

Is it the case that WAEHLSDEVKRRFYKNW [RPL3] has protein stability index reaching or exceeding 3? Criterion not met

Is it the case that TVTSLDVVYALKRQGRT [HHF1] has protein stability index reaching or exceeding 3? Criterion met

Is it the case that KFIALCEQQPSQEREFS [SIN4] has protein stability index reaching or exceeding 3? Criterion not met

###

assay: protein stability index of a GFP-peptide fusion (yeast GPS) (PSI 1-4); higher = more stable; sorted into four equal gates, so the index is relative within each strain; conditions: doa10∆
Output T for protein stability index not less than 3; output F otherwise.

// known answers, use as guide
TAKLQMRRFILGTTEGD [RPN14]: F
KDLTLCRYSCLALERMV [YCS4]: F

Is it the case that QDRIQDVKLVLASNFDN [MED1] has protein stability index reaching or exceeding 3? F

Is it the case that KYNAFIASEVLIKQVPR [RPL1A] has protein stability index reaching or exceeding 3? F

Is it the case that PHLPFSKSENPVLSTIA [SWI3] has protein stability index reaching or exceeding 3? F

Is it the case that NGKIWVKCEELSNTLAC [RRP40] has protein stability index reaching or exceeding 3? T
